- Tested on: ES7 (Ewing's Sarcoma);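 also: after 72 h of two-drug dosing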
- runDescription: Bliss excess, mean over the matrix (fraction); higher = more synergy
observable: Bliss excess
A bare number is all that is needed in reply.

So the reported Bliss excess for Cc1c2c(nn1C)CSCc1cc(n(C)n1)CSc1cc(c3ccccc3c1)OCCCc1c(C(=O)O)n(C)c3c-2c(Cl)ccc13 [AZD5991] + C[C@@H]1COCCN1C2=NC(=NC(=C2)C3(CC3)[S@](=N)(=O)C)C4=C5C=CNC5=NC=C4 [AZD6738] (first compound max 1 µM, 7x7, partner max 10 µM) , on ES7 (Ewing's Sarcoma), turned out to be 0.0521

Per the reported ES7 (Ewing's Sarcoma) data, Cc1c2c(nn1C)CSCc1cc(n(C)n1)CSc1cc(c3ccccc3c1)OCCCc1c(C(=O)O)n(C)c3c-2c(Cl)ccc13 [AZD5991] + CCN(CCO)CCCOc1ccc2c(Nc3cc(CC(=O)Nc4cccc(F)c4)[nH]n3)ncnc2c1 [AZD2811] (first compound max 1 µM, 7x7, partner max 1 µM) has Bliss excess of 0.0267

Field Bliss excess (system: ES7 (Ewing's Sarcoma)) for entry NC1(C(=O)N[C@@H](CCO)c2ccc(Cl)cc2)CCN(c2ncnc3[nH]ccc23)CC1 [Capivasertib] + COc1nnc2ccc(N3CCC(c4ccc(OCCN5CCN(C)C(=O)[C@H]5C)cc4)CC3)nn12 [AZD5153] (first compound max 10 µM, 7x7, partner max 1 µM) = 0.104

###

- Tested on: COR-L23 (Non-Small Cell Lung Carcinoma)
- runDescription: combination Emax (second highest fraction inhibited in the dose matrix, 72 h); higher = more inhibition; extreme values may be limits of the assay
observable: combination Emax
// no unit, no text: just the number

The recorded combination Emax for NC1(C(=O)N[C@@H](CCO)c2ccc(Cl)cc2)CCN(c2ncnc3[nH]ccc23)CC1 [Capivasertib] + CC(=O)c1c(C)c2cnc(Nc3ccc(N4CCNCC4)cn3)nc2n(C2CCCC2)c1=O [Palbociclib] (first compound max 10 µM, 7x7, partner max 10 µM) is 0.442

So for COc1cc2ncnc(Nc3ccc(F)c(Cl)c3)c2cc1OCCCN1CCOCC1 [Gefitinib] + CC(C)n1c(=O)n(C)c2cnc3cc(F)c(-c4ccc(OCCCN5CCCCC5)nc4)cc3c21 [AZD1390] (first compound max 10 µM, 7x7, partner max 0.3 µM) , the logged combination Emax turned out to be 0.0639

Entry under test: CN(CCO)CC[C@H](CSc1ccccc1)Nc1ccc(S(=O)(=O)NC(=O)c2ccc(N3CCC([C@@H](O)c4ccccc4-c4ccc(Cl)cc4)CC3)cc2)cc1S(=O)(=O)C(F)(F)F [AZD4320] + CN(C)CCCOc1ccc(-c2ccc3ncc4c(c3c2)n(C2CCOCC2)c(=O)n4C)cn1 [AZD0156] (first compound max 1 µM, 7x7, partner max 1 µM) . Its combination Emax was 0.0875

Kindly note the recorded combination Emax for COc1nnc2ccc(N3CCC(c4ccc(OCCN5CCN(C)C(=O)[C@H]5C)cc4)CC3)nn12 [AZD5153] + C[C@@H]1COCCN1C2=NC(=NC(=C2)C3(CC3)[S@](=N)(=O)C)C4=C5C=CNC5=NC=C4 [AZD6738] (first compound max 1 µM, 7x7, partner max 10 µM) , which is 0.772

Lookup result for Cc1c2c(nn1C)CSCc1cc(n(C)n1)CSc1cc(c3ccccc3c1)OCCCc1c(C(=O)O)n(C)c3c-2c(Cl)ccc13 [AZD5991] + CCN(CCO)CCCOc1ccc2c(Nc3cc(CC(=O)Nc4cccc(F)c4)[nH]n3)ncnc2c1 [AZD2811] (first compound max 1 µM, 7x7, partner max 1 µM) ; measured combination Emax: 0.201

The recorded combination Emax for entry COc1cccc(OCCCN)c1-c1cc(Nc2cnc(C#N)cn2)n[nH]1 [Prexasertib] + C[C@@H]1COCCN1C2=NC(=NC(=C2)C3(CC3)[S@](=N)(=O)C)C4=C5C=CNC5=NC=C4 [AZD6738] (first compound max 1 µM, 7x7, partner max 10 µM) equals 0.685
